target: Inadl_2, Q8NI35; assay: holdup assay; set-up: key: below the threshold = too weak to quantify, mostly under pKd 3.1 to 4; conditions: plain residues with an end cap or a label only (N-terminal biotin on a linker: ahx)
Sequence (Q8NI35 238-335): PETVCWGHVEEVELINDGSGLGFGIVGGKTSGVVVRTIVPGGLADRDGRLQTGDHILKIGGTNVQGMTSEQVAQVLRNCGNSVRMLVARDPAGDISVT
Recorded Endpoint: pKd

Below: 8 binders and their reported pKd.
SKKNELFSNL [NHERF1, O14745]    below the threshold
KDECVIATEV [DLL1, O00548]    below the threshold
YNSFLSVTTV [PDZRN3, Q9UPQ7]    below the threshold
HSATSVHTSV [MTMR1, Q13613]    below the threshold
ADENEQVSAV [RAPGEF6, Q8TEU7]    below the threshold
PKMKLNETSF [SHKBP1, Q8TBC3]    below the threshold
SAPATLSSRA [PDLIM2, Q96JY6]    below the threshold
VNENQKEYFF [CNTNAP4, Q9C0A0]    5.4

Exercise: Endpoint output: pKd of AKPQPVDSWV [ARVCF, O00192] . Value?
Key: below the threshold

Exercise: Endpoint output: pKd of KEYDDELTFF [USH1C, Q9Y6N9] . Value?
Key: 4.09
